Task for the reader: assign each of the following binders its reported kon.
Target: T1, rhesus CD117 ectodomain (rhesus, UniProt F6V858 26-524)
T1 construct: extracellular domain
Experiment: BLI (Octet Red96), IgG on anti-human Fc sensors, rhesus CD117 ectodomain at 33.3 and 11 nM, 1:1 fit
Express the result in M⁻¹ s⁻¹ but write the number alone.

Please give the measured kon for this binder: Antibody 61 (antibody, human IgG1, kappa, V domains shown, also called Ab61; HC-61/LC-61) VH: EVQLLESGGGLVQPGGSLRLSCAASGFTFSSYVMIWVRQAPGKGLEWVSSISGDSVTTYYADSVKGRFTISRDNSKNTLYLQMNSLRAEDTAVYYCAKGPPTYHTNYYYMDVWGKGTTVTVSS VL: DIQMTQSPSSVSASVGDRVTITCRASQGISSWLAWYQQKPGKAPKLLIYAASSLQSGVPSRFSGSGSGTDFTLTISSLQPEDFATYYCQQTNSFPYTFGGGTKVEIKR
230000

Please give the measured kon for this binder: Antibody 56 (antibody, human IgG1, kappa, V domains shown, also called Ab56; HC-56/LC-56) VH: QVQLVQSGAEVKKPGSSVKVSCKASGGTFSLYAISWVRQAPGQGLEWMGGIIPAFGTANYAQKFQGRVTITADESTSTAYMELSSLRSEDTAVYYCARGGLDTDEFDLWGRGTLVTVSS VL: DIQMTQSPSSLSASVGDRVTITCRASQSINSYLNWYQQKPGKAPKLLIYAASSLQSGVPSRFSGSGSGTDFTLTISSLQPEDFATYYCQQGVSDITFGGGTKVEIKR
306000
